# target_desc: UniProtKB Q9UBN7
# Sequence (Q9UBN7 whole entry): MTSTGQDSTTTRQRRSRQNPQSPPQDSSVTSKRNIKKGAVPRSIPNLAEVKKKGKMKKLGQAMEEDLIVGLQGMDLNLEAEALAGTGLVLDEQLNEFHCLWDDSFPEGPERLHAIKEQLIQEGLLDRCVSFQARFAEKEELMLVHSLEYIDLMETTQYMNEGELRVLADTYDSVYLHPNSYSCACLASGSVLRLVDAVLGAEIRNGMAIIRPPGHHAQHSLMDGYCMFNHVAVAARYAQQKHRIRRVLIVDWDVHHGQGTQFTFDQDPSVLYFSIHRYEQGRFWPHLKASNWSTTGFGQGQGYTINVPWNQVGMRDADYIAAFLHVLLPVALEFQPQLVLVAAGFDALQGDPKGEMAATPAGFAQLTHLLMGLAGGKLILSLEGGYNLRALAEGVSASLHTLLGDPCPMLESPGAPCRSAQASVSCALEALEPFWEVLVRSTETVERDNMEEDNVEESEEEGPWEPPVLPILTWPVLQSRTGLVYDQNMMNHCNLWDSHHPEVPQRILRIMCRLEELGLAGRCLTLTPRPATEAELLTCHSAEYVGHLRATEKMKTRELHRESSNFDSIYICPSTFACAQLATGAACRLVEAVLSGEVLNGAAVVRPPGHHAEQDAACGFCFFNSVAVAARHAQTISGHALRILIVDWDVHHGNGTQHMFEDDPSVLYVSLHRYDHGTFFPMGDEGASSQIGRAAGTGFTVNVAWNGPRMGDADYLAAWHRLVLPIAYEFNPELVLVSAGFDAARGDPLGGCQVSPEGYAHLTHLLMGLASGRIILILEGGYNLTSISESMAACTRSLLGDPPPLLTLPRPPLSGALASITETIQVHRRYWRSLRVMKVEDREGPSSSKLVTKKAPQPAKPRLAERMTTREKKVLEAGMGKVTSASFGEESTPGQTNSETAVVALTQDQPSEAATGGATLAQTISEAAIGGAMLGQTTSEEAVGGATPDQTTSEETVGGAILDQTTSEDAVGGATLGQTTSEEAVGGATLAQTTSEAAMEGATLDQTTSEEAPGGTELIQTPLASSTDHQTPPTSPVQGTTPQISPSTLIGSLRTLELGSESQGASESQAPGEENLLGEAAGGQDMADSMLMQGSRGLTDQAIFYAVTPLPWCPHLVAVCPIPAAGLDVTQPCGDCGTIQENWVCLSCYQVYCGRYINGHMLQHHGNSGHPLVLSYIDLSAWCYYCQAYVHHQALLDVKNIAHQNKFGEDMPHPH
# experimental_details: fluorescence HDAC isoenzyme activity assay
# Assay type: biochemical
# experimental_conditions: read-out: IC50 (nM)^1 / Martinostat
assay_readout: IC50

So what's the measured IC50 for this one? CN(Cc1ccc(/C=C/C(=O)NO)cc1)CC12CC3CC(CC(C3)C1)C2
70 nM
